experimental_target: TBK1 (human)
test_description: radiometric filter-binding kinase assay, Kinase HotSpot
condition: compound 0.5 µM; ATP 10 µM
# cutoff 90% applies to residual activity; >= gives T, < gives F

COc1cc(Nc2c(C#N)cnc3cc(OCCCN4CCN(C)CC4)c(OC)cc23)c(Cl)cc1Cl F
COc1ccc(S(=O)(=O)N(CCO)c2ccccc2CN(C)C/C=C/c2ccc(Cl)cc2)cc1 T
COc1cc2ncnc(Nc3ccc(Oc4ccccc4)cc3)c2cc1OC T

Let us examine a further case.
Exercise: Answer whether residual activity of `CCCCc1c(-c2ccc(OC)cc2)[nH]c2nccnc12` is greater than or equal to 90%.
Solution: F

====

experimental_target: CDK2 CCNE1 (human) (UniProt P24941+P24864)
Sequence (P24864 whole entry, looked up, other chains not shown): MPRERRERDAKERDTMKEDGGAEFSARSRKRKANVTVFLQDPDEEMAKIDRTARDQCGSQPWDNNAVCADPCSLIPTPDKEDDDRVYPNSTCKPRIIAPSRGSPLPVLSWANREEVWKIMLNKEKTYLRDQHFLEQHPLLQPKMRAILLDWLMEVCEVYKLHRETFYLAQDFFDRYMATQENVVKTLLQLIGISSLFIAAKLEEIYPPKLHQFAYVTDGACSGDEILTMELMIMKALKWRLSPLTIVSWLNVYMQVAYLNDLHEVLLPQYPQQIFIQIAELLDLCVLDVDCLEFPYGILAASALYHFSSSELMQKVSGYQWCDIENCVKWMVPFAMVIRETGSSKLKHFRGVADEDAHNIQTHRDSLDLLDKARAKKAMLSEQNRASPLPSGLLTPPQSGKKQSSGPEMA
test_description: radiometric filter-binding kinase assay, Kinase HotSpot
condition: compound 0.5 µM; ATP 10 µM
Returns one of YES or NO; YES when residual activity is >= 90%.

CN(C)S(=O)(=O)c1ccc2c(c1)/C(=C/c1cc3c([nH]1)CCCC3)C(=O)N2 NO
Cc1nc(-c2ccccc2)c(-c2ccncc2)o1 YES
O=C(c1cc2cc(O)ccc2[nH]1)c1cc2cc(O)ccc2[nH]1 NO
O=C1Nc2ccc(Br)cc2/C1=C\c1cc2c([nH]1)CCCC2 YES

Exercise: Please tell me: is the compound `O=C1c2ccccc2-c2nc3nnnn3nc21` at or over 90% in terms of residual activity?
Solution: NO

Exercise: Check this compound for residual activity at or above 90%: `Cc1cn(-c2cc(NC(=O)c3ccc(C)c(Nc4nccc(-c5cccnc5)n4)c3)cc(C(F)(F)F)c2)cn1`
Solution: YES

Exercise: Answer whether residual activity of `CCCCc1c(-c2ccc(OC)cc2)[nH]c2nccnc12` is greater than or equal to 90%.
Solution: NO

Exercise: Is the recorded value of residual activity equal to or greater than 90% for this compound? `Ic1cccc(CSc2nnc(-c3ccncc3)o2)c1`
Solution: YES

Exercise: Please indicate if the recorded residual activity for `CS(=O)(=O)CCNCc1ccc(-c2ccc3ncnc(Nc4ccc(OCc5cccc(F)c5)c(Cl)c4)c3c2)o1` meets or exceeds 90%.
Solution: YES

Exercise: Is residual activity at least 90%? Consider `COc1ccc2c(c1)c(C1=C(c3c[nH]c4ccccc34)C(=O)NC1=O)cn2CCCN(C)C`
Solution: YES

====

experimental_target: TNK2 (human) (UniProt Q07912)
Sequence (Q07912 whole entry, looked up): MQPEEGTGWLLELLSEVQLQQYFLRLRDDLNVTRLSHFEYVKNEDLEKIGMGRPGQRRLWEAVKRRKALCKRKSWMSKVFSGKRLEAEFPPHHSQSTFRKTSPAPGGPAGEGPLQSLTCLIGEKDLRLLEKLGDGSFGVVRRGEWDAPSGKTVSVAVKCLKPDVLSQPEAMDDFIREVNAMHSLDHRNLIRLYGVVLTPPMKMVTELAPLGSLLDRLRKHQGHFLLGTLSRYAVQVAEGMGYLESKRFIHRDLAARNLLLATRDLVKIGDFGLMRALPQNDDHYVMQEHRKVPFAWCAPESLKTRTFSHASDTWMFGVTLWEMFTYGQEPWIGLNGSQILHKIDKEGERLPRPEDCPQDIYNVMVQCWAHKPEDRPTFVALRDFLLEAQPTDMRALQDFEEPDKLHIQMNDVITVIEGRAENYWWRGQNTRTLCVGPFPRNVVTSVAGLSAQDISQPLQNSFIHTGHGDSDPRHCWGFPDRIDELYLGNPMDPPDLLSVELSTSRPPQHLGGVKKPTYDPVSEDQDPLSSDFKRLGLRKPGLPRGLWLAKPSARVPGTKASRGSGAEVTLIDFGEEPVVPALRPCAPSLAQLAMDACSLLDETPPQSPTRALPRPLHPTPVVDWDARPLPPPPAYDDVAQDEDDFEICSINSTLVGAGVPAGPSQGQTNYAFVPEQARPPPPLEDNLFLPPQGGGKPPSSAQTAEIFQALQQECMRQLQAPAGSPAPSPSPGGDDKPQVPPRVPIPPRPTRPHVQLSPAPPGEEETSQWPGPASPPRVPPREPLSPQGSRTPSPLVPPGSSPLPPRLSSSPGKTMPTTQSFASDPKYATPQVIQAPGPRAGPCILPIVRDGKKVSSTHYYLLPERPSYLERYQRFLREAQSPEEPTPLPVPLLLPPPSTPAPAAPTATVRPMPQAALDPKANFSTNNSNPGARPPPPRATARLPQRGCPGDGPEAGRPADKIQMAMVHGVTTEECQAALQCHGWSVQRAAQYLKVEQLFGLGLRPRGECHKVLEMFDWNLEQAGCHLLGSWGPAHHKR
test_description: radiometric filter-binding kinase assay, Kinase HotSpot
condition: compound 0.5 µM; ATP 10 µM
The label met is reserved for residual activity strictly under 50%; not met covers values equal to or above it.

Use the examples below as a reference point.
Cc1nc(-c2ccccc2)c(-c2ccncc2)o1 not met
C[C@@H]1CCN(C(=O)CC#N)C[C@@H]1N(C)c1ncnc2[nH]ccc12 not met

Exercise: Problem: For the compound `COc1ccc(S(=O)(=O)N(CCO)c2ccccc2CN(C)C/C=C/c2ccc(Cl)cc2)cc1` , is residual activity under 50%?
Solution: not met

Exercise: Take the compound `Cn1c2ccccc2c2c3c(c4c5ccccc5n(CCC#N)c4c21)CNC3=O` and say whether its residual activity is less than 50%.
Solution: met

Exercise: Given `CC(C)(C)c1cc(C=C(C#N)C#N)cc(Br)c1O` , is recorded residual activity strictly lower than 50%?
Solution: not met

Exercise: Lab note: residual activity threshold 50%. Does this compound come in strictly under it? `COc1cc(Nc2c(C#N)cnc3cc(OCCCN4CCN(C)CC4)c(OC)cc23)c(Cl)cc1Cl`
Solution: met

Exercise: Please let me know if `COc1ccc2c(c1)c(C1=C(c3c[nH]c4ccccc34)C(=O)NC1=O)cn2CCCN(C)C` shows residual activity below 50%.
Solution: not met

====

experimental_target: GRK6 (human)
test_description: radiometric filter-binding kinase assay, Kinase HotSpot
condition: compound 0.5 µM; ATP 10 µM
observed_property: residual activity (%)
Report as a plain number; the unit % is understood.

Some solved entries appear below for comparison.
CC(C)(C)c1cc(C=C(C#N)C#N)cc(Br)c1O 94.6
N#C/C(=C\c1ccc(O)c(O)c1)C(=O)NCc1ccccc1 101
Cc1cncc2cccc(S(=O)(=O)N3CCCN(C(=O)CN)C[C@H]3C)c12 85.5
O=C1c2ccccc2-c2nc3nnnn3nc21 58

Exercise: Quick one: residual activity for `C[C@@H]1CCN(C(=O)CC#N)C[C@@H]1N(C)c1ncnc2[nH]ccc12` ?
Solution: 101

Exercise: Reported residual activity for `Cn1c2ccccc2c2c3c(c4c5ccccc5n(CCC#N)c4c21)CNC3=O` : what is it?
Solution: 44.4

Exercise: State the recorded residual activity for this entry: `COc1ccc(Cl)cc1NC(=O)Nc1cc(C)nc2ccccc12`
Solution: 105

Exercise: Query (compound): `O=C1NC(=O)c2c1c1c3ccccc3[nH]c1n1cncc21` ; field requested: residual activity
Solution: 82.1

Exercise: residual activity lookup needed for `c1ccc2c(-c3ccncc3)c[nH]c2c1` , thanks.
Solution: 103

Exercise: State the recorded residual activity for this entry: `Cc1cccc(-c2nc(C(C)(C)C)[nH]c2-c2ccc3c(c2)OCO3)n1`
Solution: 101

Exercise: Entry `Ic1cccc(CSc2nnc(-c3ccncc3)o2)c1` has what residual activity?
Solution: 100

====

experimental_target: CAMK2D (human)
test_description: radiometric filter-binding kinase assay, Kinase HotSpot
condition: compound 0.5 µM; ATP 10 µM
Below, each entry is listed alongside its reported residual activity.
// units = %; emit number, no label

Exercise: Form field: reported residual activity of `COc1ccc(C(=O)Nc2sc3c(c2C(N)=O)CCCC3)cc1OC`
Solution: 104

Exercise: Any idea what residual activity was measured for `CS(=O)(=O)CCNCc1ccc(-c2ccc3ncnc(Nc4ccc(OCc5cccc(F)c5)c(Cl)c4)c3c2)o1` ?
Solution: 92.5

Exercise: Name the recorded residual activity for `COc1cc(Nc2c(C#N)cnc3cc(OCCCN4CCN(C)CC4)c(OC)cc23)c(Cl)cc1Cl` .
Solution: 94.6

Exercise: Record request: residual activity value, item `O=C(c1cc2cc(O)ccc2[nH]1)c1cc2cc(O)ccc2[nH]1`
Solution: 63.7

Exercise: For the molecule `O=C1c2ccccc2-c2nc3nnnn3nc21` , what residual activity is on record?
Solution: 93

====

experimental_target: UniProt Q13177
Sequence (Q13177 whole entry, looked up): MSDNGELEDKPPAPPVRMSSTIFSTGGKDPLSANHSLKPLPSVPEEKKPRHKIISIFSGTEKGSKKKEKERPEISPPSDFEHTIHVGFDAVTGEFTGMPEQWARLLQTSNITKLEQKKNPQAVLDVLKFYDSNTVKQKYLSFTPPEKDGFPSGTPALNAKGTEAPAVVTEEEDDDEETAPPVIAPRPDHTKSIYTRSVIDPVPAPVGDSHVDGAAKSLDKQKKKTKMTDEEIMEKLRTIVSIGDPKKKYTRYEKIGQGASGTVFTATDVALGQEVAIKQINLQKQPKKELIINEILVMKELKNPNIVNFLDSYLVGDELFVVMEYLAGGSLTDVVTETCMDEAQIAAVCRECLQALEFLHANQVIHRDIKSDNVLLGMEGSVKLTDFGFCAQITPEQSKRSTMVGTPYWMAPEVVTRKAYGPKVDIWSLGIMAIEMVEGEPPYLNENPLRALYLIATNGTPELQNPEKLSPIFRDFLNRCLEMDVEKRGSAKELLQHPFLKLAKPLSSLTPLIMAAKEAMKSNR
test_description: radiometric filter-binding kinase assay, Kinase HotSpot
condition: compound 0.5 µM; ATP 10 µM
observed_property: residual activity (%)
The response must be a number in % with no trailing unit.

Examples from the recorded data:
N#C/C(=C\c1ccc(O)c(O)c1)C(=O)NCc1ccccc1 76.8
CN(C)c1ccc(/C=C2\C(=O)Nc3ccccc32)cc1 102
COc1ccc(C(=O)Nc2sc3c(c2C(N)=O)CCCC3)cc1OC 99.1
O=C1NC(=O)c2c1c1c3ccccc3[nH]c1n1cncc21 99

Exercise: I have this molecule here, `c1ccc2c(-c3ccncc3)c[nH]c2c1` , and I need its recorded residual activity.
Solution: 84

Exercise: Which measured residual activity value corresponds to `N#Cc1c[nH]c2c[nH]/c(=N\Cc3cccnc3)cc2/c1=N\c1ccc(F)c(Cl)c1` ?
Solution: 66.6

Exercise: Fill in the blank: the reported residual activity of `COc1cc2ncnc(Nc3ccc(OCc4ccccc4)cc3)c2cc1OC` is ____.
Solution: 102

Exercise: Reported residual activity for `NC(=O)c1cccc(-c2cc(Nc3ccc(OC(F)(F)F)cc3)ncn2)c1` : what is it?
Solution: 106

Exercise: Value lookup for residual activity; key = `Fc1ccc(-c2nc3n(c2-c2ccncc2)CCS3)cc1`
Solution: 84.7

Exercise: Any idea what residual activity was measured for `O=C(c1cc2cc(O)ccc2[nH]1)c1cc2cc(O)ccc2[nH]1` ?
Solution: 97

====

experimental_target: FES (human)
test_description: radiometric filter-binding kinase assay, Kinase HotSpot
condition: compound 0.5 µM; ATP 10 µM
observed_property: residual activity
Number plus unit, in that order.

Before answering, review these 2 worked examples.
N#Cc1c[nH]c2c[nH]/c(=N\Cc3cccnc3)cc2/c1=N\c1ccc(F)c(Cl)c1 108%
COc1ccc(S(=O)(=O)N(CCO)c2ccccc2CN(C)C/C=C/c2ccc(Cl)cc2)cc1 96.3%

Exercise: Checklist item: residual activity tested on FES (human), entry `COc1ccc2c(c1)/C(=C/c1cnc[nH]1)C(O)=N2` , value?
Solution: 97%

Exercise: What value of residual activity on FES (human) does `CO[C@@H]1[C@H](N(C)C(=O)c2ccccc2)C[C@H]2O[C@]1(C)n1c3ccccc3c3c4c(c5c6ccccc6n2c5c31)C(=O)NC4` have?
Solution: 48.3%

Exercise: Please provide the recorded residual activity for `COc1ccc(C(=O)Nc2sc3c(c2C(N)=O)CCCC3)cc1OC` , tested on FES (human).
Solution: 102%

Exercise: // lookup residual activity | system=FES (human) | key= `O=C1c2ccccc2-c2nc3nnnn3nc21`
Solution: 87.6%

Exercise: Please tell me: residual activity of `COc1ccc2c(c1)c(C1=C(c3c[nH]c4ccccc34)C(=O)NC1=O)cn2CCCN(C)C` , system FES (human)?
Solution: 120%
